All values here come from the supplement of paper PMC4862054.

drug sensitivity score values for the molecules below.
system: MFM-223; test: drug sensitivity score (DSS), CellTiter-Glo (DSS (AUC-based score)); higher = stronger drug effect (viability inhibition or cytotoxicity); extreme values may be limits of the assay; conditions: incubation time: 72 h
Hey, just send me the number, nothing else.

Field: example entries. Status: answers known.
Molecule	Value
CC[C@]1(O)C[C@H]2CN(CCc3c([nH]c4ccccc34)[C@@](C(=O)OC)(c3cc4c(cc3OC)N(C=O)[C@H]3[C@@](O)(C(=O)OC)[C@H](OC(C)=O)[C@]5(CC)C=CCN6CC[C@]43[C@@H]65)C2)C1 [Vincristine]	11.6
Cn1c(=O)n(-c2ccc(C(C)(C)C#N)cc2)c2c3cc(-c4cnc5ccccc5c4)ccc3ncc21 [Dactolisib]	13.4

// map O=C(O)CCCc1ccc(N(CCCl)CCCl)cc1 [Chlorambucil] to recorded drug sensitivity score (system: MFM-223) 0

----------
test system: CAL-148; experiment: normalised response (% of control), CellTiter-Glo; higher = more viable cells (100 = DMSO, 0 = benzethonium chloride kill control); settings: incubation time: 72 h
# if value of normalised response reaches 90%, tag met; if it stays below, tag not met

Previously resolved entries follow.
Molecule	Category
CC(C)c1c(C(=O)Nc2ccccc2)c(-c2ccccc2)c(-c2ccc(F)cc2)n1CC[C@@H](O)C[C@@H](O)CC(=O)O [Atorvastatin] (100 nM)	met
CN(C)C[C@@H]1CCn2cc(c3ccccc32)C2=C(C(=O)NC2=O)c2cn(c3ccccc23)CCO1 [Ruboxistaurin] (100 nM)	met
CO[C@H]1C[C@@H]2CC[C@@H](C)[C@@](O)(O2)C(=O)C(=O)N2CCCC[C@H]2C(=O)O[C@H]([C@H](C)C[C@@H]2CC[C@@H](OCCO)[C@H](OC)C2)CC(=O)[C@H](C)/C=C(\C)[C@@H](O)[C@@H](OC)C(=O)[C@H](C)C[C@H](C)/C=C/C=C/C=C/1C [Everolimus] (1 nM)	not met
Nc1nc(OCc2cc(Br)cs2)c2[nH]cnc2n1 [Lomeguatrib] (100 nM)	met

Now turn to the next molecule.
Form field: normalised response at least 90%? Entry: NS(=O)(=O)OC[C@@H]1C[C@@H](n2ccc3c(N[C@H]4CCc5ccccc54)ncnc32)C[C@@H]1O [Pevonedistat] (100 nM) met

----------
// reported normalised response per item
tested on: MDA-MB-453; test: normalised response (% of control), CellTox Green; higher = less cell death (100 = DMSO, 0 = benzethonium chloride kill control); conditions: incubation time: 72 h
The response must be a number in % with no trailing unit.

Examples with their reported normalised response follow.
Compound	Measure	Value
O=C(O)CCCc1ccc(N(CCCl)CCCl)cc1 [Chlorambucil] (1000 nM)	normalised response	100
CN(C)C[C@@H]1CCn2cc(c3ccccc32)C2=C(C(=O)NC2=O)c2cn(c3ccccc23)CCO1 [Ruboxistaurin] (100 nM)	normalised response	92.7
Nc1nc(OCc2cc(Br)cs2)c2[nH]cnc2n1 [Lomeguatrib] (10000 nM)	normalised response	92.8
CO[C@H]1C[C@@H]2CC[C@@H](C)[C@@](O)(O2)C(=O)C(=O)N2CCCC[C@H]2C(=O)O[C@H]([C@H](C)C[C@@H]2CC[C@@H](OCCO)[C@H](OC)C2)CC(=O)[C@H](C)/C=C(\C)[C@@H](O)[C@@H](OC)C(=O)[C@H](C)C[C@H](C)/C=C/C=C/C=C/1C [Everolimus] (100 nM)	normalised response	104
Cn1cncc1[C@@](N)(c1ccc(Cl)cc1)c1ccc2c(c1)c(-c1cccc(Cl)c1)cc(=O)n2C [Tipifarnib] (10000 nM)	normalised response	92.4

Fill in: normalised response of Cc1ccc(NC(=O)c2ccc(CN3CCN(C)CC3)cc2)cc1Nc1nccc(-c2cccnc2)n1 [Imatinib] (100 nM) is ___ 102

Please do the same for CN1CCN(CCOc2cc(OC3CCOCC3)c3c(Nc4c(Cl)ccc5c4OCO5)ncnc3c2)CC1 [Saracatinib] (1000 nM) as well. 101

Next: C[C@]12CC[C@H](O)CC1=CC[C@@H]1[C@@H]2CC[C@]2(C)C(c3cccnc3)=CC[C@@H]12 [Abiraterone] (50 nM) 104

----------
The following molecules are shown together with reported drug sensitivity score values.
test system: MDA-MB-436; assay: drug sensitivity score (DSS), CellTiter-Glo (DSS (AUC-based score)); higher = stronger drug effect (viability inhibition or cytotoxicity); extreme values may be limits of the assay; conditions: incubation time: 72 h
Give the figure by itself; no unit, no explanation.

Before answering, review these 5 worked examples.
Molecule	Value
O=C1NC(=O)[C@@H](c2cn3c4c(cccc24)CCC3)[C@@H]1c1c[nH]c2ccccc12 [Tivantinib]	2.69
C/C(=C\c1csc(C)n1)[C@@H]1C[C@@H]2O[C@]2(C)CCC[C@H](C)[C@H](O)[C@@H](C)C(=O)C(C)(C)[C@@H](O)CC(=O)O1 [Patupilone]	15
Nc1nc(OCc2cc(Br)cs2)c2[nH]cnc2n1 [Lomeguatrib]	0
CN1CCN(CCOc2cc(OC3CCOCC3)c3c(Nc4c(Cl)ccc5c4OCO5)ncnc3c2)CC1 [Saracatinib]	0.426
COc1ccc(-c2ccc3c(N4CCOC[C@@H]4C)nc(N4CCOC[C@@H]4C)nc3n2)cc1CO [AZD8055]	18.9

Which drug sensitivity score is listed for CC(C)(C#N)c1cc(Cn2cncn2)cc(C(C)(C)C#N)c1 [Anastrozole] ? 0

How about CC(C)c1c(C(=O)Nc2ccccc2)c(-c2ccccc2)c(-c2ccc(F)cc2)n1CC[C@@H](O)C[C@@H](O)CC(=O)O [Atorvastatin] ? 0

Likewise for CNNCc1ccc(C(=O)NC(C)C)cc1 [Procarbazine] ? 0

Okay, and Cc1ccc(NC(=O)c2ccc(CN3CCN(C)CC3)cc2)cc1Nc1nccc(-c2cccnc2)n1 [Imatinib] ? 0

----------
system: CAL-85-1; experiment: normalised response (% of control), CellTox Green; higher = less cell death (100 = DMSO, 0 = benzethonium chloride kill control); conditions: incubation time: 72 h
Below, each entry is listed alongside its reported normalised response.
Hi! Could you send only the number? It should be in %, unit omitted.

Compound	Quantity unit	normalised response
O=C1NC(=O)[C@@H](c2cn3c4c(cccc24)CCC3)[C@@H]1c1c[nH]c2ccccc12 [Tivantinib] (100 nM)	%	93.4
COc1ccc(-c2ccc3c(N4CCOC[C@@H]4C)nc(N4CCOC[C@@H]4C)nc3n2)cc1CO [AZD8055] (1000 nM)	%	87.8
CO[C@H]1C[C@@H]2CC[C@@H](C)[C@@](O)(O2)C(=O)C(=O)N2CCCC[C@H]2C(=O)O[C@H]([C@H](C)C[C@@H]2CC[C@@H](OCCO)[C@H](OC)C2)CC(=O)[C@H](C)/C=C(\C)[C@@H](O)[C@@H](OC)C(=O)[C@H](C)C[C@H](C)/C=C/C=C/C=C/1C [Everolimus] (10 nM)	%	109

Please look up its normalised response: Cn1c(=O)n(-c2ccc(C(C)(C)C#N)cc2)c2c3cc(-c4cnc5ccccc5c4)ccc3ncc21 [Dactolisib] (100 nM) 94.4

Can you check CC(C)c1c(C(=O)Nc2ccccc2)c(-c2ccccc2)c(-c2ccc(F)cc2)n1CC[C@@H](O)C[C@@H](O)CC(=O)O [Atorvastatin] (100 nM) next? 94.1

Lookup CN(C)C[C@@H]1CCn2cc(c3ccccc32)C2=C(C(=O)NC2=O)c2cn(c3ccccc23)CCO1 [Ruboxistaurin] (100 nM) 109

Item: CNNCc1ccc(C(=O)NC(C)C)cc1 [Procarbazine] (1000 nM) 95.4

Same question for CO[C@H]1C[C@@H]2CC[C@@H](C)[C@@](O)(O2)C(=O)C(=O)N2CCCC[C@H]2C(=O)O[C@H]([C@H](C)C[C@@H]2CC[C@@H](OCCO)[C@H](OC)C2)CC(=O)[C@H](C)/C=C(\C)[C@@H](O)[C@@H](OC)C(=O)[C@H](C)C[C@H](C)/C=C/C=C/C=C/1C [Everolimus] (1 nM) please. 109

Can you check NS(=O)(=O)OC[C@@H]1C[C@@H](n2ccc3c(N[C@H]4CCc5ccccc54)ncnc32)C[C@@H]1O [Pevonedistat] (10000 nM) next? 53.7

Proceed to COc1ccc(-c2ccc3c(N4CCOC[C@@H]4C)nc(N4CCOC[C@@H]4C)nc3n2)cc1CO [AZD8055] (100 nM) 104

Now give it for CN1CCN(CCOc2cc(OC3CCOCC3)c3c(Nc4c(Cl)ccc5c4OCO5)ncnc3c2)CC1 [Saracatinib] (10000 nM) too. 29.9

Next: CC[C@]1(O)C[C@H]2CN(CCc3c([nH]c4ccccc34)[C@@](C(=O)OC)(c3cc4c(cc3OC)N(C=O)[C@H]3[C@@](O)(C(=O)OC)[C@H](OC(C)=O)[C@]5(CC)C=CCN6CC[C@]43[C@@H]65)C2)C1 [Vincristine] (1000 nM) 54.1
